Item-by-item account of Activity
Biological target: Nuclear factor erythroid 2-related factor 2 (Homo sapiens)
Assay: Activation of Nrf2 in human HepG2-ARE-C8 cells assessed as induction of ARE-mediated luciferase activity at 1 uM after 24 hrs by luciferase reporter gene assay relative to control
Type: cell-based
testReadout: Activity

INSERT INTO measurements (linenotation, datavalue) VALUES
  ('Fc1ccc(-c2noc(-c3ccc(F)c(F)c3)n2)cc1', 2.05),
  ('Fc1ccc(-c2nc(-c3ccc4nc[nH]c4c3)no2)c(Cl)c1', 4.22),
  ('Brc1ccc(-c2nc(-c3ccc4nc[nH]c4c3)no2)cc1', 0.87),
  ('Fc1cccc(-c2nc(-c3ccc4nc[nH]c4c3)no2)c1', 4.49),
  ('COc1cc(OC)cc(-c2noc(-c3ccc(F)c(F)c3)n2)c1', 2.15),
  ('Fc1ccc(-c2nc(-c3cccnc3)no2)cc1F', 2.02),
  ('Fc1ccccc1-c1nc(-c2ccc3nc[nH]c3c2)no1', 12),
  ('Fc1cccc(-c2noc(-c3ccc(F)c(F)c3)n2)c1', 2.05),
  ('Fc1ccc(-c2nc(-c3ccc(Br)cc3)no2)cc1F', 4.49),
  ('Cc1cccc(-c2noc(-c3ccc(F)c(F)c3)n2)n1', 2.65),
  ('Fc1ccc(-c2nc(-c3ccncc3)no2)cc1F', 1.07),
  ('Fc1ccc(-c2nc(-c3ccc4nc[nH]c4c3)no2)c(F)c1', 2.48);

* * *

Target: Nuclear factor erythroid 2-related factor 2 (Homo sapiens)
Assay: Activation of Nrf2 in human HepG2-ARE-C8 cells assessed as induction of ARE-mediated luciferase activity at 20 uM after 24 hrs by luciferase reporter gene assay relative to control
Assay type: cell-based
testReadout: Activity

INSERT INTO results (linenotation, datavalue) VALUES
  ('Fc1ccc(-c2noc(-c3ccc(F)c(F)c3)n2)cc1F', 1.73),
  ('COc1cc(OC)cc(-c2noc(-c3ccc(F)c(F)c3)n2)c1', 3.45),
  ('Fc1ccc(-c2nc(-c3ccccc3F)no2)cc1F', 4.85),
  ('Fc1ccc(-c2nc(-c3ccccc3Br)no2)cc1F', 1.98),
  ('CN(C)C=O', 1.65),
  ('Fc1ccc(-c2nc(-c3ncccc3F)no2)cc1F', 1.75),
  ('Fc1ccc(-c2nc(-c3ccncc3)no2)cc1F', 1.29),
  ('CC(C)(C)c1ccc(-c2noc(-c3ccc(F)c(F)c3)n2)cc1', 8.35),
  ('Fc1ccc(-c2nc(-c3cnccn3)no2)cc1F', 1.81),
  ('Fc1cccc(-c2noc(-c3ccc(F)c(F)c3)n2)c1', 2.76),
  ('Fc1ccc(-c2nc(-c3ccc(-c4ccccc4)cc3)no2)cc1F', 8.54),
  ('Fc1cccc(-c2nc(-c3ccc4nc[nH]c4c3)no2)c1', 8.83);

* * *

Biological target: UniProt:Q16236
Sequence (Q16236 whole entry): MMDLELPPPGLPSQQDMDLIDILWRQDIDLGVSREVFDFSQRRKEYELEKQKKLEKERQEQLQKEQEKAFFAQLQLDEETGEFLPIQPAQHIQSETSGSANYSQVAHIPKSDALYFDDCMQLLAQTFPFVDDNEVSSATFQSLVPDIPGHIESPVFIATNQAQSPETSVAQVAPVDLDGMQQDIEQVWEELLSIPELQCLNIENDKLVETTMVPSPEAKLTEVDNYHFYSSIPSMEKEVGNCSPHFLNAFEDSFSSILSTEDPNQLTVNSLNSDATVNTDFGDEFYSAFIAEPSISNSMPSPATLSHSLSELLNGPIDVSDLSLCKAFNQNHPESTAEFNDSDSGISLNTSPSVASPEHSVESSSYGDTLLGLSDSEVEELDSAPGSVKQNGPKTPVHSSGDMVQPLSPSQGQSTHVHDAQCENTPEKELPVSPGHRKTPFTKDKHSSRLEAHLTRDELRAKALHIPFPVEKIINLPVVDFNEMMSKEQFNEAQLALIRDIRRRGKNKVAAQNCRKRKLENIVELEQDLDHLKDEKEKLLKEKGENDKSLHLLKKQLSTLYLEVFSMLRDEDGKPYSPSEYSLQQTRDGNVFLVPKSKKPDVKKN
Assay: Activation of Nrf2 in human HepG2-ARE-C8 cells assessed as induction of ARE-mediated luciferase activity at 40 uM after 24 hrs by luciferase reporter gene assay relative to control
Type: cell-based
testReadout: Activity

INSERT INTO measurements (linenotation, datavalue) VALUES
  ('Clc1cccc(-c2nc(-c3ccc4nc[nH]c4c3)no2)c1', 13.2),
  ('Fc1ccc(-c2nc(-c3cccnc3)no2)cc1F', 3.15),
  ('Fc1ccc(-c2nc(-c3ccc(-c4ccccc4)cc3)no2)cc1F', 10.8),
  ('Cc1ccnc(-c2noc(-c3ccc(F)c(F)c3)n2)c1', 9.76),
  ('Fc1ccc(-c2nc(-c3cccc4[nH]ccc34)no2)cc1F', 3.77);
